Origin of values: PubChem BioAssay (NCATS)

test system: CP286; assay: qHTS profiling for inhibitors of Plasmodium falciparum proliferation (AID 504749);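 also: 0% = DMSO vehicle and full inhibition = artemisinin control; nearly all actives have a fitted effect of over 60% in size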; conditions: P. falciparum in erythrocytes, SYBR Green DNA, 72 h; series mostly up to 28.7 µM
Inconclusive results are not listed. Calls of active or inactive are those of the source. Calls follow the shape of the dose curve; as a rule, active = well fitted inhibition curve with a large enough effect; inconclusive = small, poorly fitted or top-dose-only effect; inactive = flat fitted curve, though single readings scatter.
Measured endpoint: outcome

Molecule	outcome
NC[C@@H]1O[C@H](OC2[C@@H](CO)O[C@@H](OC3[C@H](O)[C@H](N)C[C@H](N)[C@H]3OC3O[C@H](CO)[C@@H](O)[C@H](O)[C@@H]3N)[C@H]2O)C(N)[C@H](O)[C@@H]1O (stereo not given in full)	inactive
CO/N=C(/C(=O)N[C@@H]1C(=O)N2C(C(=O)O)=C(CSc3nnnn3C)CS[C@H]12)c1csc(N)n1	inactive
CC(=O)NC1[C@H]([C@H](O)[C@H](O)CO)OC(C(=O)O)=C[C@H]1N=C(N)N (stereo not given in full)	inactive
CC[C@@H]1/C=C(\C)C[C@H](C)C[C@H](OC)[C@H]2O[C@@](O)(C(=O)C(=O)N3CCCC[C@H]3C(=O)O[C@H](/C(C)=C/[C@@H]3CC[C@H](Cl)[C@H](OC)C3)[C@H](C)[C@@H](O)CC1=O)[C@H](C)C[C@@H]2OC	inactive

# lookup: outcome of CCOC(=O)C(CCc1ccccc1)NC(C)C(=O)N1Cc2cc(OC)c(OC)cc2CC1C(=O)O (stereo not given)
inactive

---

molecular target: 3',5'-cyclic-AMP phosphodiesterase 4B (Homo sapiens); assay: qHTS Assay for Inhibitors of PDE-IV (AID 607); conditions: HEK293 ACTOne CNG channel cells, membrane potential fluorescence; series mostly up to 22.9 µM; also: % of control where 0% means no effect
Results filed as inconclusive are left out. The source made the active and inactive calls. The call rests on the fitted dose curve; in most records, active means well fitted activation curve with a large enough effect in the main read-out, with a control signal flat (not every such curve was filed as active); inconclusive means small, poorly fitted or top-dose-only effect, or effect the other way, or a change in a side signal; inactive means flat fitted curve, though single readings scatter.
Measured endpoint: outcome

Compound	Value measured
C[C@@H](C(=O)NCc1ccc(S(C)(=O)=O)cc1)[C@@H]1C[C@@]1(C)[C@@H](NC(=O)OCc1ccccc1)c1ccccc1	inactive
COC(=O)C1(CC(C)C)C=C2C(=C(c3ccccc3)C(=O)C2C)CN1 (centres undefined)	inactive
O=C(O)[C@@H]1CCCN[C@H]1C(=O)O	inactive
Cc1cc(Cc2cc(Cc3cc(C)cc(C(C)(C)C)c3O)c(C)cc2C)c(O)c(C(C)(C)C)c1	inactive
C=C(CC1([C@@H](NP(=O)(c2ccccc2)c2ccccc2)[C@H]2C[C@@H]2CCCC)CC1)c1cccc(OC)c1	inactive

# lookup: outcome of CC1=C(C(=O)OCc2ccccc2)C(c2ccc3ccccc3c2)NC(=O)N1CCCCCC(=O)O (centres undefined)
inactive

# lookup: outcome of CC(C)[C@@H](CC(=O)N[C@@H]1CCNC[C@H]1C(=O)N[C@H](CC(=O)N[C@@H](CCC(=O)O)CC(=O)O)Cc1ccccc1)NC(=O)C[C@H](CO)NC(=O)[C@@H]1CCCC[C@H]1N
inactive

# lookup: outcome of O[C@@H]1CC[C@H]2Cc3ccccc3N=C21
inactive

# lookup: outcome of COC(=O)[C@H]1C[C@@H]1[C@H](NC(=O)c1cccnc1)c1ccccc1
inactive

---

test: AP1 Signaling Pathway (AID 357); details: ME-180 AP-1-bla reporter, EGF-induced, beta-lactamase ratio, 5 h; at 17.2 µM (top of the series) unless noted;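 also: ME-180 reporter cells stimulated with EGF at its EC50 level; % is scaled to controls: 0 for no effect and ±100 for the full control effect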
Results filed as inconclusive are left out. The source made the active and inactive calls. The call rests on the fitted dose curve; in most records, active means well fitted curve in either direction with a large enough effect (not every such curve was filed as active); inconclusive means small, poorly fitted or top-dose-only effect, or another doubt; inactive means flat fitted curve, though single readings scatter.
Measured endpoint: activity change, negative = inhibition

# lookup: activity change, negative = inhibition of CCOc1ccc(N2C(=O)CC(N)C2=O)cc1 (configuration not stated)
-19.2% (inactive)

# lookup: activity change, negative = inhibition of Cc1c(O)c(CN2CCCC2)cc2c1oc(=O)c1ccccc12
4.42% (inactive)

# lookup: activity change, negative = inhibition of C=CCNc1nc(C2(C)CC3(CC(C)(C)OC3=O)C(=O)O2)cs1 (configuration not stated)
-3.51% (inactive)

# lookup: activity change, negative = inhibition of CCCN(CCC)C(=O)CC(c1ccc(F)cc1)c1ccco1 (configuration not stated)
13% (inactive)

# lookup: activity change, negative = inhibition of c1ccc2c(c1)NC(c1ccncc1)n1c-2nc2ccccc21 (configuration not stated)
-17.1% (inactive)

# lookup: activity change, negative = inhibition of CC1(C)Cc2c(sc3nc(SCC(=O)NCc4ccco4)n(-c4ccccc4)c(=O)c23)CS1
-19.4% (inactive)

# lookup: activity change, negative = inhibition of Cc1cc(=O)oc(C)c1C(=O)NCCC1=CCCCC1
12.2% (inactive)

# lookup: activity change, negative = inhibition of O=C1C=C(O)CC(c2cccs2)C1 (configuration not stated)
-0.0121% (inactive)

# lookup: activity change, negative = inhibition of O=C1c2ccccc2-c2onc3ccc(NCc4ccco4)c1c23
-13% (inactive)

# lookup: activity change, negative = inhibition of O=C1CC(NCc2ccncc2)C(=O)N1c1ccc(Cl)cc1 (configuration not stated)
-15.8% (inactive)

# lookup: activity change, negative = inhibition of COc1ccc(CN2CCC(=O)NC2=O)cc1
9.75% (inactive)

# lookup: activity change, negative = inhibition of COc1cccc(C=NCCNC(=O)c2nonc2N)c1O
0.441% (inactive)

---

Experiment: Stat Signaling Pathway (AID 446);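 also: ME-180 cervical cancer cells given 40 pM IL-6 alongside compound; SIE-controlled beta-lactamase reporter measured as 460/530 nm FRET emission ratio; % is scaled to controls: 0 for no effect and ±100 for the full control effect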
Details: ME-180 SIE beta-lactamase reporter, IL-6 stimulated, 5 h; at 17.2 µM (top of the series) unless noted
Procedure: NCGC Assay Overview: The IL-6/STAT signaling pathway was assayed in ME-180 cervical carcinoma cells by a beta-lactamase reporter gene controlled by a STAT Inducible Element (SIE). This reporter is induced by IL-6 at 40 pM AC50 and inhibited by the pan JAK inhibitor, 2-(1,1-Dimethylethyl)-9-fluoro-3,6-dihydro-7H-benz[h]-imidaz[4,5-f]isoquinolin-7-one, at approximately 10 nM AC50. Plated cells were incubated overnight and on the following day, stimulated with 40 pM IL-6 for 5 hrs. […]
Inconclusive results are not listed. Activity calls are given as the source filed them. The call rests on the fitted dose curve; in most records, active means well fitted curve in either direction with a large enough effect (not every such curve was filed as active); inconclusive means small, poorly fitted or top-dose-only effect, or another doubt; inactive means flat fitted curve, though single readings scatter.
Measured endpoint: activity, negative = inhibition

# lookup: activity, negative = inhibition of COC(=O)C(NC(C)=O)(Nc1ccc(Br)cn1)C(F)(F)F (stereo unspecified)
-10.2% (inactive)

# lookup: activity, negative = inhibition of [N-]=[N+]=CC(=O)c1ccnc(C(=O)C=[N+]=[N-])c1
-1.87% (inactive)

# lookup: activity, negative = inhibition of CN(C)CCCN1C(=O)C(=O)/C(=C(/O)c2ccccc2)C1c1ccccn1 (stereo unspecified)
4.69% (inactive)

# lookup: activity, negative = inhibition of COC(=O)C1=C(C)N=C2SC(C)C(=O)N2C1/C=C/c1ccccc1OC (stereo unspecified)
-6.43% (inactive)

# lookup: activity, negative = inhibition of CCCCCC[C@@H]([C@H](C)O)n1cnc2c(N)ncnc21
25.6% [at 38 µM] (inactive)

# lookup: activity, negative = inhibition of CCOC(=O)C(C(=O)OCC)N(C#N)c1nc(SC)nc(N(C)C)n1
-8.92% (inactive)

# lookup: activity, negative = inhibition of CC(C)NC(=O)N1CCOCCOCCN(C(=O)NC(C)C)CCOCCOCC1
0.97% (inactive)

# lookup: activity, negative = inhibition of CN/C(=C/[N+](=O)[O-])NCCSCc1ccc(CN(C)C)o1
-3.38% (inactive)

# lookup: activity, negative = inhibition of CCOC(=O)c1ccc(CC2S/C(=C(\C#N)C(C)=O)NC2=O)cc1 (stereo unspecified)
-21.4% (inactive)

# lookup: activity, negative = inhibition of CCOC(=O)c1c(-c2cccs2)csc1NC(=O)c1ccncc1
1.61% (inactive)

# lookup: activity, negative = inhibition of O=C(CCCN1C(=O)c2ccccc2C1=O)N1CCC(c2ccccc2)C1 (stereo unspecified)
1.3% (inactive)

---

So I've got a bunch of compounds here, and I need their activity change, negative = inhibition values.
assay: AP1 Signaling Pathway (AID 357); details: ME-180 (cervical carcinoma) AP-1-bla reporter, EGF-induced, beta-lactamase ratio, 5 h; at 17.2 µM (top of the series) unless noted;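 also: ME-180 reporter cells stimulated with EGF at its EC50 level; % is scaled to controls: 0 for no effect and ±100 for the full control effect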
Inconclusive results are not listed.
Give just the number in %; leave the unit off.

# lookup: activity change, negative = inhibition of Cc1cc(C)nc(CC(N)=O)n1
0.0367

# lookup: activity change, negative = inhibition of CCCCCCC(=O)N1CCN(c2cc3c(cc2F)c(=O)c(C(=O)O)cn3CC)CC1
-1.28

# lookup: activity change, negative = inhibition of O=C(NCc1cccnc1)/C(=N\O)c1ccccc1
-8.53

# lookup: activity change, negative = inhibition of CCc1nc(N2CCN(C(=O)c3ccccc3)CC2)c(C#N)c2c1COC(C)(C)C2
-17.6

# lookup: activity change, negative = inhibition of CCC(=O)Nc1c(C#N)c2nc3ccccc3nc2n1C1CCCCC1
-0.0903

# lookup: activity change, negative = inhibition of COC(=O)c1ccc(C2/C(=C(\O)c3ccc4c(c3)OCCO4)C(=O)C(=O)N2CCCN(C)C)cc1 (stereo not drawn)
10.1

# lookup: activity change, negative = inhibition of CC(=O)Nn1cnc2c(c1=O)C1(CCCC1)Cc1ccccc1-2
-8.59

# lookup: activity change, negative = inhibition of COC(=O)c1ccc(Oc2nc3ccccc3n3c(C)nnc23)cc1
13

# lookup: activity change, negative = inhibition of Cn1cc(Br)cc2nc(C(F)(F)F)nc1-2
-3.15

# lookup: activity change, negative = inhibition of CCN(CC)CCN1C(=O)C(=O)/C(=C(/O)c2c(C)[nH]c(C(=O)OC)c2C)C1c1ccco1 (stereo not drawn)
6.74

# lookup: activity change, negative = inhibition of O=c1oc2c(CN3CCCCC3)c(O)ccc2c2c1CCCCC2
2.02

# lookup: activity change, negative = inhibition of O=C(Nc1nc(NC(=O)c2ccco2)n(-c2ccccc2)n1)c1ccccc1
-13.5

# lookup: activity change, negative = inhibition of NC(=O)CSc1c[nH]c2ccccc12
2.78

# lookup: activity change, negative = inhibition of N#Cc1nc(COc2ccccc2Cl)oc1NCc1ccc(F)cc1
-5.24

# lookup: activity change, negative = inhibition of O=C1C(=O)N(Cc2cccnc2)C(c2ccccn2)/C1=C(/O)c1ccc(Br)cc1 (stereo not drawn)
-19.9

# lookup: activity change, negative = inhibition of COc1ccc(C(=O)Cn2c(Br)nc3c2c(=O)n(C)c(=O)n3C)cc1OC
7.09

# lookup: activity change, negative = inhibition of CCOc1ccc(-c2nn3c(-c4ccc(OC)cc4)nnc3s2)cc1
-1.24

# lookup: activity change, negative = inhibition of CCN(CC)CCN1C(=O)C(=O)/C(=C(/O)c2ccc(C)cc2)C1c1cccnc1 (stereo not drawn)
4.64

# lookup: activity change, negative = inhibition of COc1ccccc1NC(=O)Nc1nnc(C(C)C)s1
-4.89

# lookup: activity change, negative = inhibition of c1ccc(-c2nnc3sc(Cc4cccs4)nn23)cc1
-13.7

# lookup: activity change, negative = inhibition of O=C1CCc2nc3ccccc3c(=O)n2N1
-6.16

# lookup: activity change, negative = inhibition of COc1ccc(Cn2ccnc2)cc1Br
4.25

# lookup: activity change, negative = inhibition of Cn1c(=O)c2c(nc(NCc3ccco3)n2CCc2ccccc2)n(C)c1=O
-0.525

# lookup: activity change, negative = inhibition of Cn1c(=O)c2c(nc(NCC(O)CO)n2CCc2ccccc2)n(C)c1=O (stereo not drawn)
8.87

# lookup: activity change, negative = inhibition of CC1(C)Cc2c(C#N)c(OCC(=O)c3ccccc3)nc(-c3ccoc3)c2CO1
20.6

# lookup: activity change, negative = inhibition of CCOC(=O)C1=C(N)c2ccccc2CC1C(C)C (stereo not drawn)
-3.93

# lookup: activity change, negative = inhibition of COc1ccc(CN(C#N)c2nc(SC)nc(N(C)C)n2)cc1
-3.69

# lookup: activity change, negative = inhibition of Cc1cc(C)c(NC(=O)OCCN2CCOCC2)c(C)c1
4.21

# lookup: activity change, negative = inhibition of Cc1csc2nc(CSc3nc4ccccc4o3)cn12
-11.6

# lookup: activity change, negative = inhibition of COC(=O)C(NC(C)=O)(Nc1ccc(Br)cn1)C(F)(F)F (stereo not drawn)
0.568

# lookup: activity change, negative = inhibition of CCOC(=O)CC(=O)CSc1nnc2sc3ccccc3n12
6.11

# lookup: activity change, negative = inhibition of COc1ccc(CCCNC(=O)CC#N)cc1OC
13.8

# lookup: activity change, negative = inhibition of O=C(O)C1CC(=O)n2c(nc3ccccc32)S1 (stereo not drawn)
-9.56

# lookup: activity change, negative = inhibition of C=C(C)C1Cc2c(C)nn(-c3nc(C)cc(C)n3)c2C1 (stereo not drawn)
-4.28

# lookup: activity change, negative = inhibition of CC(O)Cn1ccccc1=N (stereo not drawn)
-4.75

# lookup: activity change, negative = inhibition of C=CCNc1nc(-c2cccc(OC)c2O)nc2ccccc12
20.2

# lookup: activity change, negative = inhibition of CCc1c(C)c2cc(Cl)c(O)c(CN3CCCCC3)c2oc1=O
3.67

# lookup: activity change, negative = inhibition of CC(C)Cc1nc(N2CCOCC2)c(C#N)c2c1CCC2
-16.4

# lookup: activity change, negative = inhibition of O=c1oc2cc(O)ccc2c2oc3cc(O)ccc3c12
5.61

# lookup: activity change, negative = inhibition of Cc1ccc(/C=c2\sc3n(c2=O)CN(c2ccc(Br)cc2)CN=3)o1
25.9

# lookup: activity change, negative = inhibition of O=C(O)c1cnn2c(C(F)(F)F)cc(-c3ccco3)nc12
11

# lookup: activity change, negative = inhibition of O=c1cc(O)nc2n1CCCS2
5

# lookup: activity change, negative = inhibition of CN(C1CCS(=O)(=O)C1)S(=O)(=O)c1cccc2nsnc12 (stereo not drawn)
-3.76

# lookup: activity change, negative = inhibition of COc1cc(N2CCCC2)c(OC)cc1/C=c1/sc2nc3ccccc3n2c1=O
-3.35

# lookup: activity change, negative = inhibition of COc1ccc(CCNC(=O)c2ccc(=O)[nH]n2)cc1OC
-1.15

# lookup: activity change, negative = inhibition of C=CCc1c(C)nc(SCCC)[nH]c1=O
2.81

# lookup: activity change, negative = inhibition of C=CCOc1nc2c(c(=O)n(C)c(=O)n2C)n1Cc1ccccc1Cl
-0.647

# lookup: activity change, negative = inhibition of CCCCc1[nH]c(=O)c(C#N)c2c1CSC(C)(C)C2
15.5
